Reference for the values: the supplement of paper PMC6757056

B1: library; a variant is named by its letters at N, in order (parent)
chain: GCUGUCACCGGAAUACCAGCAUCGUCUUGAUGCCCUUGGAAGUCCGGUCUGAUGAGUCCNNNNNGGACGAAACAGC

# Variants of: B1
# protocol_summary: FACS-Seq fitted mean relative fluorescence mCherry/BFP with ligand (log10 relative fluorescence); ligand concentration (+) FACS-Seq: 1 mM; higher = higher reporter protein expression
# run_conditions: HEK293T, ligand present: yes
Param threshold (0.7) applies to FACS-Seq fitted mean (log10); output true when value >= threshold, false when value < threshold.

residue_change	category
UAGUA	false
AUCUC	true
GAGGG	true
CACUU	true
AAAUC	false
UCCGU	false
AGCGU	false
AAUAA	false
GAACC	true
UGUGC	false
CAAUU	true
UUAUU	true
AACCG	true
AAUAU	false
GUCCU	true
CGCGU	false
